List of melting point values.

- Compound: "COc1ccc(CNc2ccc(C#N)cc2F)cc1"
  melting point: "113 °C"
- Compound: "c1cnnc(N=C2SC[C@@H]3Cc4ccccc4CN23)c1"
  melting point: "140 to 142 °C"
- Compound: "C=Cc1cccc2[nH]c(C(=O)O)cc(=O)c12"
  melting point: "265 to 266 °C"
- Compound: "CC(C)Oc1cc(NC(=O)CC(CCCl)C(F)(F)F)c(F)cc1Cl (stereo not drawn)"
  melting point: "57 to 63 °C"
- Compound: "CN1CCN(c2ncc(-c3cc(Cl)cc(Cl)c3Cl)c(N)n2)CC1"
  melting point: "162 to 164 °C"
- Compound: "CCS(=O)C1(Cl)CC2C(Cc3ccccc3)C(=O)N2C1C(=O)OCc1ccccc1 (stereo not drawn)"
  melting point: "118 to 123 °C"
- Compound: "CC(C)(C)OC(=O)Nc1ccc(C#Cc2ccc(F)cc2)cc1N"
  melting point: "180 °C"
- Compound: "CS(=O)(=O)N1CCC(NC(=O)Nc2ccc(OC(F)(F)F)cc2)CC1"
  melting point: "233 to 234 °C"

---

List of melting point values.

- Compound: "Cc1ccc2c(c1)NC(NC(C)C)=NS2(=O)=O"
  melting point: "137 to 139 °C"
- Compound: "CC(C)(C)OC(=O)N[C@H](Cc1cccc(OC(F)(F)C(F)F)c1)[C@@H](O)c1csc(-c2ccccc2)n1 (racemic)"
  melting point: "127 to 128 °C"
- Compound: "CN(Cc1ccc(Cl)cc1)c1ccc(S(=O)CCCCCC(=O)O)cc1 (stereo not drawn)"
  melting point: "109 to 111 °C"

---

List of melting point values.

- Compound: "Oc1ccc(O)c(-c2noc3cc(O)ccc23)c1"
  melting point: "215 to 217 °C"
- Compound: "Cn1cc(C2=C(c3c4n(c5ccccc35)CCCC(CO)C4)C(=O)NC2=O)c2ccccc21 (stereo not drawn)"
  melting point: "268 to 270 °C"
- Compound: "CN1C(=O)C[C@]2(c3ccccc3)CCCC[C@H]2C1=O (relative stereo)"
  melting point: "151 to 153 °C"

---

- Compound: "COc1cccc(CNC(=O)c2nc3scc(-c4cccc(-c5ccc(C(=O)O)cc5)c4)c3c(=O)[nH]2)c1"
  melting point: "259 to 260 °C"
- Compound: "O=C1Nc2ccccc2Oc2sc3ccccc3c21"
  melting point: "240 to 242 °C"
- Compound: "CCC(Oc1ccc(C=Cc2nc[nH]n2)cc1)C(N)=O (centres undefined)"
  melting point: "150 °C"
- Compound: "Cc1ccc(-c2nc(COc3ccc(CCCn4ccnc4)cc3)cs2)s1"
  melting point: "78 to 79 °C"
- Compound: "CNC(=S)NCCCSc1ncc[nH]1"
  melting point: "139 to 141 °C"
- Compound: "CC#CC(=O)N[C@H]1CC[C@H](CCN2CCC(c3cccc4c3CCO4)CC2)CC1"
  melting point: "195 °C"
- Compound: "COc1ccc(-c2cc(-c3ccccc3C(=O)O)no2)cc1"
  melting point: "182 to 185 °C"
- Compound: "CC(C)c1cccc(NC(=O)c2ccccc2[N+](=O)[O-])c1"
  melting point: "65.5 to 68.5 °C"
- Compound: "CC1=NC(NC(=O)Nc2cccc(C)c2)C(=O)N(CC(=O)C2CCCC2)c2c(C)cccc21 (centres undefined)"
  melting point: "150 to 156 °C"

---

- Compound: "Cc1ccc2[nH]c(=O)n(CCCN3CCN(C(c4ccccc4)c4ccccc4)CC3)c2c1"
  melting point: "196 °C"
- Compound: "C#Cc1cc(Oc2cnc(NC(CO)CO)nc2N)c(C(C)C)cc1OC"
  melting point: "136 to 139 °C"
- Compound: "Cc1cc(C#N)cc(C)c1Oc1nc(Nc2ccc(C#N)cc2)nc(C)c1Br"
  melting point: "260 to 262 °C"
- Compound: "O=c1[nH]ncc2[nH]c(-c3ccc(OC(F)F)c(OC4CC4)c3)c(CO)c12"
  melting point: "190 to 191 °C"
- Compound: "N#Cc1ncn(Cc2ccccc2)c1C#N"
  melting point: "123 to 125 °C"
- Compound: "Nc1nn(-c2ccccc2)cc1CO"
  melting point: "127 to 128 °C"
- Compound: "O=C1C(Cl)=C(N2CCN(c3nc4ccccc4o3)CC2)C(=O)c2nsnc21"
  melting point: "233 to 235 °C"
- Compound: "CON1C(C)(C)CC(CCCCNc2nc(N)nc(NCCCCC3CC(C)(C)N(OC)C(C)(C)C3)n2)CC1(C)C"
  melting point: "163 to 165 °C"
- Compound: "COC(=O)C1CC(c2ccncc2)CCC1=O (stereo not drawn)"
  melting point: "82 to 83 °C"
- Compound: "FCCn1ncnc1COc1nn2c(-c3ccccc3F)nncc2c1-c1ccccc1F"
  melting point: "172 to 173 °C"
- Compound: "COC(=O)c1c2ccccc2nc2c3ccccc3n(C)c12"
  melting point: "127 °C"
- Compound: "CCN(CC)S(=O)(=O)c1ccc2[nH]c(-c3c(C)c(Cl)cc(C(C)(C)C)c3O)nc2c1"
  melting point: "277 to 278 °C"
- Compound: "CCCC(=O)NC1=CC(=O)c2ccc(C=O)nc2C1=O"
  melting point: "208 to 210 °C"

---

List of melting point values.
Assay endpoint: melting point

- Molecule: "CC(=O)OCc1c(-c2cc(Nc3cc4n(n3)CCN(C)C4)c(=O)n(C)n2)cccc1-n1ncc2cc(C(C)(C)C)cc(F)c2c1=O"
  Value reported: "188 to 193 °C"
- Molecule: "O=C(O)c1ccccc1N1C(=O)c2cccc([N+](=O)[O-])c2C1=O"
  Value reported: "190 to 192 °C"
- Molecule: "O=[N+]([O-])c1ccc(Br)cc1-c1cc(-c2cccc(Br)c2)on1"
  Value reported: "195 to 197 °C"
- Molecule: "CCCCN(CC(O)C(Cc1ccccc1)NC(=O)C(C)CS(C)(=O)=O)S(=O)(=O)c1ccc(OC)cc1 (stereo not given)"
  Value reported: "87 to 92 °C"
- Molecule: "Cc1ccccc1-c1c(NC(=O)Nc2ccc(F)cc2F)c(=O)oc2ccc(C(C)C)cc12"
  Value reported: "199 to 200 °C"
- Molecule: "Cc1nn(C)c(C)c1-c1ccc(OC2SCC(O)C(O)C2O)cn1 (stereo not given)"
  Value reported: "132 °C"
- Molecule: "O=[N+]([O-])c1cnn2c1-c1ccccc1NC2C1CCCCC1 (stereo not given)"
  Value reported: "150 to 152 °C"
- Molecule: "CCN(CC)CCN(C)C1(c2ccccc2Cl)C(=O)Nc2ccc(Cl)cc21 (stereo not given)"
  Value reported: "140 °C"
- Molecule: "Cc1cc(-c2ncn(Cc3ccc(F)cc3)n2)sc1C(=O)NCc1cccnc1"
  Value reported: "154 to 155 °C"
- Molecule: "Cc1cc(-c2nc3cc(F)cc(F)c3s2)ccc1N"
  Value reported: "201 to 203 °C"

---

List of melting point values.

- Molecule: "CN(C)CCCNC(=O)[C@@H]1CCCN1S(=O)(=O)c1ccc(Cl)c(COc2cccc3c2NC(C)(C)C=C3n2cncn2)c1Cl"
  melting point: "154 °C"
- Molecule: "C1CN2CCN3CCN(CCN1)P23"
  melting point: "109 to 111 °C"
- Molecule: "Cc1ccc(-c2nn(-c3cccc4ccccc34)c(N)c2C(N)=O)cc1"
  melting point: "195 °C"
- Molecule: "CC(=O)NC[C@H]1CN(c2ccc(-n3cc(-c4ccncc4)cn3)c(F)c2)C(=O)O1"
  melting point: "204 to 205 °C"
- Molecule: "CSc1ccc(Cl)c(C(=O)NCC23CC4CC(CC(C4)C2)C3)c1"
  melting point: "126 to 127 °C"
- Molecule: "C[C@H](CO)Nc1nc(SCc2ccccc2)nc2[nH]c(=O)[nH]c12"
  melting point: "284 °C"
- Molecule: "CCOC(=O)c1ncc2c(c1COC)c1c(OS(=O)(=O)C(F)(F)F)cccc1n2S(=O)(=O)C(F)(F)F"
  melting point: "60 to 62 °C"
- Molecule: "Nc1ccccc1Oc1ccc2c(c1)OCC(=O)N2"
  melting point: "149 to 150 °C"
- Molecule: "COc1ccc(C(=Cc2cc3c(cc2[N+](=O)[O-])OCO3)C(=O)O)cc1"
  melting point: "184 to 185 °C"
- Molecule: "CCCCCCCCCCCCOCC(COCCCCCCCCCCCC)(CC(=O)O)CC(=O)O"
  melting point: "80 to 82 °C"
- Molecule: "CC(=O)Oc1ccc(/C=C2/Sc3nc(Nc4ccc(N5CCN(C)CC5)cc4)ncc3NC2=O)cc1"
  melting point: "168 to 171 °C"
- Molecule: "CC(C)(C)OC(=O)NN(C(=O)c1ccccc1)C(C)(C)C"
  melting point: "167 to 170 °C"
- Molecule: "COc1cc(CCCC2OC(=O)NC2=O)ccc1OCc1coc(CCc2ccccc2)n1 (stereo unspecified)"
  melting point: "122 to 123 °C"
- Molecule: "CCCc1c(OCCCCc2ccc3cc(O)c(O)cc3c2)ccc(C(=O)O)c1O"
  melting point: "173 to 175 °C"
- Molecule: "Cc1c(O)ccc2c(=O)c(-c3ccc4c(c3)OCO4)coc12"
  melting point: "270 to 272 °C"
- Molecule: "O=C(CCCCl)Nc1cccc2cccnc12"
  melting point: "62 to 63 °C"
